test system: HCT-15 colon; experiment: NCI-60 one-dose screen, 48 h (100 = growth as untreated, 0 = no growth, -100 = all killed); conditions: 10 µM unless noted
This is part of a sample that, as a whole, favours compounds with a hit. Of some 83,000 tested, about 20% had one in any assay.
Assign YES whenever growth does not fall below 30%; assign NO whenever it does.

Consider the worked cases shown below.
{"Compound": "CC1CN(S(=O)(=O)c2oc(-c3ccc(Cl)cc3)nc2C#N)CC(C)O1 (stereo unspecified)", "Classification": "NO"}
{"Compound": "O=C1/C(=C/c2ccccc2Br)COc2ccc(O)cc21", "Classification": "YES"}
{"Compound": "COc1cc(-c2csc(NC(=O)c3ccc(N4CCOCC4)c(C(F)(F)F)c3)n2)cc(OC)c1OC", "Classification": "NO"}
{"Compound": "CC(=O)Oc1ccc(N2C(=O)C(Cl)=C(Nc3cccc(C(F)(F)F)c3)C2=O)cc1", "Classification": "YES"}
{"Compound": "CCCCCCCCCc1ccc(OCCOCCOCCOCCOCCOCCOCCOCCOCCO)cc1", "Classification": "NO"}
{"Compound": "O=C(Nc1ccccc1)Nc1ncnc2c1ncn2-c1ccc(Cl)cc1", "Classification": "YES"}

Input line: Would you say O=C(N/N=C/c1c(Cl)cccc1Cl)c1cccnc1Nc1cccc(C(F)(F)F)c1 shows growth at minimum 30%?
Output line: NO

Input line: And the next one, O=C(CSC(=S)n1cnnc1)NC(=O)c1ccccc1 ?
Output line: YES

Input line: And the next one, O=c1c2ccccc2n2cnc3ccc(Cl)c1c32 ?
Output line: YES

Input line: And the next one, CCCCCCCCCCCCCCCCOCCCOP(=O)(O)C1CCCN(O)C1=O (stereo unspecified) ?
Output line: NO

Input line: And the next one, CCOC(=O)C1=C(c2ccccc2)N=C2SC=C(c3ccc(Cl)cc3)N2C1c1ccc(Br)cc1 (stereo unspecified) ?
Output line: YES

Input line: And the next one, O=C(O)CCN1C(=O)/C(=C/C(Cl)=C/c2ccccc2)SC1=S ?
Output line: NO

---

system: SF-268 CNS; assay: NCI-60 one-dose screen, 48 h (100 = growth as untreated, 0 = no growth, -100 = all killed); conditions: 10 µM unless noted
About 83,000 compounds went through this panel and 20% of them were active in at least one assay; those are over-represented in the sample as a whole.
Values of growth strictly less than 70% map to Yes, and values of at least 70% map to No.

Consider the worked cases shown below.
{"Molecule": "COc1cc(NS(=O)(=O)c2ccc(-c3cnc(C4CC4)o3)cc2)ccc1F", "Classification": "Yes"}
{"Molecule": "O=C1/C=C/[C@@H](O)[C@@H]2C[C@@H](O)C[C@H]2/C=C/CCC[C@H](CCc2ccccc2)O1", "Classification": "Yes"}
{"Molecule": "Cc1cc(N2CCCCC2)cc(C)c1-c1csc(NC(=O)c2ccncc2)n1", "Classification": "Yes"}

Then there is this compound:
Input line: Find out if reported growth for COc1ccc(C(=O)C/C(=C\c2ccc(Cl)cc2)C(=O)NCc2ccccc2)cc1 is less than 70%
Output line: No

---

test system: OVCAR-4 ovarian; experiment: NCI-60 one-dose screen, 48 h (100 = growth as untreated, 0 = no growth, -100 = all killed); conditions: 10 µM unless noted
Compounds without any hit were thinned out: in the full panel of roughly 83,000, 20% have a hit.
Endpoint label: growth (%)
Supply the numeric figure in %, leaving out any unit text.

Some solved cases for reference:
{"Compound": "Cn1ccc(=O)c(C(=O)Nc2nsc3ccc([N+](=O)[O-])cc23)c1", "Output unit": "%", "growth": 53.4}
{"Compound": "Cc1ccc(-c2nc(N3CCCNCC3)c3oc(-c4ccc(C)cc4)nc3n2)cc1", "Output unit": "%", "growth": 2.2}

Input line: What measured growth goes with CCc1ccccc1-n1c(-c2ccc(OC)cc2)cc(-c2ccc(OC)cc2)c(C#N)c1=O ?
Output line: 85.9

Input line: And the next one, O=c1[nH]c(-c2ccccc2)nc2sc3cc(O)ccc3c12 ?
Output line: 80

Input line: And the next one, CC1CN(S(=O)(=O)c2oc(-c3ccc(Cl)cc3)nc2C#N)CC(C)O1 (stereo not given) ?
Output line: 92.4

Input line: And the next one, Oc1c(Br)cc(Br)c2ccc(Cn3cc(-c4ccccc4C(F)(F)F)nn3)nc12 ?
Output line: 79.4

Input line: And the next one, COc1ccc2c(c1)CC[C@H](O)/C2=C/c1cc(OC)c(OC)c(OC)c1 ?
Output line: 41.1

Input line: And the next one, Cc1cc(=O)oc2cc(OCc3nn4c(Nc5nc6ccccc6s5)c(-c5ccccc5)nc4s3)ccc12 ?
Output line: 61.4

Input line: And the next one, Cc1[nH]c(=O)[nH]c(=O)c1Br ?
Output line: 117

Input line: And the next one, COc1ccc(C/C(C)=C(/c2ccc(OCCN(C)C)cc2)c2ccc(OC(=O)NCc3ccccc3)cc2)cc1 ?
Output line: 78.4

Source: PubChem BioAssay (NCI)
